- assay-system: HDM2 (Homo sapiens)
- Construct: Thioredoxin (N); made in house; host or cells: E. coli strain BL21(DE3)Rosetta
- Sequence (Q00987 17-125): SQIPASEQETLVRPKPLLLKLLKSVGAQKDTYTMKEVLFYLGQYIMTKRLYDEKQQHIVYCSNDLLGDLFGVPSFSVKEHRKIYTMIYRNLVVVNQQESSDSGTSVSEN
- experimental-details: HDM2 FRET assay (inhibition of binding of FITC labeled p53-pocket peptide to HDM2)
- measurement-context: Table 11; read-out: FRET IC50
- Source text: Methods: An HDM2 FRET assay was developed to assess the compounds' inhibitory activity towards binding of p53 protein. […] Protein was purified using Ni-affinity chromatography, followed by size exclusion chromatography using Superdex 75 26/60 column. […] The HDM2 assay buffer contained 1x Phosphate Buffered Saline (Invitrogen, Cat#14190), 0.01% BSA (Jackson ImmunoResearch, Cat# 001-000-162), 0.01% Tween-20. […]
observable: log10 IC50 (log10 of the value in nM)
Parameter value (number): base-10 log of IC50 in nM.

Using the record for CC1CCCN1c1nc2nc(-c3noc(=O)[nH]3)nc(N[C@H](C)C3CCC3)c2n1C[C@H]1CC[C@H](C)CC1 (stereo partly drawn) , report its log10 IC50.
1.40

Can you look up the measured log10 IC50 of C[C@@H](Nc1nc(-c2noc(=O)[nH]2)nc2nc(N3CCOCC3c3ccccc3Cl)n(C[C@H]3CC[C@H](C)CC3)c12)C1CCC1 (single isomer, unassigned) [Example 11.118] for me?
-0.25

Suppose we examine the compound C[C@@H](Nc1nc(-c2noc(=O)[nH]2)nc2nc(N3CCCC3c3ccccc3)n(C[C@H]3CC[C@H](C)CC3)c12)C1CCC1 (stereo partly drawn) [Example 11.130] ; what log10 IC50 value has been reported?
0.31

Recorded log10 IC50 of C[C@@H](Nc1nc(C(=O)O)nc2nc(N3CCc4ccccc4C3)n(C[C@H]3CC[C@H](C)CC3)c12)C1CCC1 , please.
1.25

Dear colleague, I am looking for the recorded log10 IC50 of the following compound: C[C@H]1CC[C@H](Cn2c(N3CCOC[C@H]3c3ccccc3)nc3nc(-c4noc(=O)[nH]4)nc(N4CCCC4C4CCC4)c32)CC1 (stereo partly drawn)
0.89

Find the recorded log10 IC50 belonging to C[C@@H]1OCCN(c2nc3nc(-c4noc(=O)[nH]4)nc(N[C@H](C)C4CCC4)c3n2C[C@H]2CC[C@H](C)CC2)[C@@H]1c1ccccc1 and report it.
1.33

Recorded log10 IC50 of C[C@@H](Nc1nc(C(=O)O)nc2nc(N3CCCC[C@@H]3c3ccccc3)n(C[C@H]3CC[C@H](C)CC3)c12)C1CCC1 , please.
0.45

Which measured log10 IC50 value corresponds to CC1CSCCN1c1nc2nc(-c3noc(=O)[nH]3)nc(N[C@H](C)C3CCC3)c2n1C[C@H]1CC[C@H](C)CC1 (stereo partly drawn) ?
0.64

For the compound CC1CCCN(c2nc3nc(C(=O)O)nc(N[C@H](C)C4CCC4)c3n2C[C@H]2CC[C@H](C)CC2)C1c1ccccc1 (stereo partly drawn) , what log10 IC50 is on record?
0.26

log10 IC50 lookup needed for C[C@@H](Nc1nc(-c2noc(=O)[nH]2)nc2nc(N3CCOC[C@H]3c3ccncc3)n(C[C@H]3CC[C@H](C)CC3)c12)C1CCC1 , thanks.
0.12

Item under review: C[C@@H]1COCCN1c1nc2nc(-c3n[nH]c(=O)o3)nc(N[C@H](C)C3CCC3)c2n1C[C@H]1CC[C@H](C)CC1 . Reported log10 IC50?
0.29

What value of measured log10 IC50 is listed for CC(Nc1nc2nc(-c3noc(=O)[nH]3)nc(N[C@H](C)C3CCC3)c2n1C[C@H]1CC[C@H](C)CC1)c1cscn1 (stereo partly drawn) ?
0.58
